Form field: IC50 (one value per entry).
# Test system: A549 cells
# protocol details: in vitro antiproliferation assay, A549 (lung)
# Assay type: cell-based
# assay setup: Table 7; in vitro antiproliferation, A549 (lung) cells
endpoint label: IC50

smiles str	assayed system	endpoint label	result
O=C(c1cc2cc(Nc3ncc(F)c(Nc4ccc5c(c4)OCCO5)n3)ccc2o1)N1CCNCC1	A549 cells	IC50	≤ 20 µM
CNC(=O)c1cc2cc(Nc3ncc(F)c(Nc4cccc(O)c4)n3)ccc2o1	A549 cells	IC50	> 20 µM
COC(=O)c1cc2cc(Nc3ncc(F)c(Nc4ccc5c(c4)NC(=O)C(F)(F)O5)n3)ccc2o1	A549 cells	IC50	≤ 20 µM
COC(=O)c1cc2cc(Nc3ncc(F)c(N(C)c4ccc(OC)c(Cl)c4)n3)ccc2o1	A549 cells	IC50	> 20 µM
CNC(=O)c1cc2cccc(Nc3ncc(F)c(Nc4cc(OC)cc(C(F)(F)F)c4)n3)c2[nH]1	A549 cells	IC50	≤ 20 µM
CNC(=O)c1cc2cccc(Nc3ncc(F)c(Nc4ccc5c(c4)OC(F)(F)C(F)(F)O5)n3)c2[nH]1	A549 cells	IC50	≤ 20 µM
CNC(=O)c1cc2cccc(Nc3ncc(F)c(Nc4cc(C)cc(C)c4)n3)c2[nH]1	A549 cells	IC50	> 20 µM
CNC(=O)c1cc2cccc(Nc3ncc(F)c(Nc4ccc(OC)c(OC)c4)n3)c2[nH]1	A549 cells	IC50	≤ 20 µM

---

# Tested on: A549 cells
# protocol details: in vitro antiproliferation assay, A549 (lung)
# Type: cell-based
# assay setup: in vitro antiproliferation, A549 (lung) cells; Table 4; compounds with no designated stereochemistry tested as racemate
Form field: IC50 (one value per entry).
endpoint label: IC50

smiles str	endpoint label	result
COc1cc(Nc2ncc(F)c(Nc3ccc4c(c3)NC(=O)C(C)(C)S4(=O)=O)n2)cc(OC)c1	IC50	> 20 µM
Cc1c(Cl)cc(Nc2ncc(F)c(Nc3ccc4c(c3)NC(=O)C(C)(C)O4)n2)cc1Cl	IC50	≤ 20 µM
COc1ccc(Nc2ncc(F)c(Nc3ccc4c(c3)NC(=O)CS4)n2)cc1F	IC50	≤ 20 µM
COc1ccc(Nc2ncc(F)c(Nc3ccc4c(c3)NC(=O)C(C)(C)S4(=O)=O)n2)cc1F	IC50	≤ 20 µM

---

Form field: pIC50 (one value per entry).
# Tested on: A549 cells
# protocol details: in vitro antiproliferation assay, A549 (lung)
# Format: cell-based
# assay setup: Table 7; in vitro antiproliferation, A549 (lung) cells
pIC50: −log10 of the molar value.

compound	pIC50
COC(=O)c1cc2cc(Nc3ncc(F)c(Nc4cccc(O)c4)n3)ccc2o1 [compound 636]	≥ 4.70
CN(C)C(=O)c1cc2cc(Nc3ncc(F)c(Nc4cccc(O)c4)n3)ccc2o1 [compound 643]	< 4.70
CC(C)Oc1ccc(Nc2nc(Nc3ccc4oc(C(=O)N5CCCC5)cc4c3)ncc2F)cc1 [compound 640]	< 4.70
CCOC(=O)c1cc2cccc(Nc3ncc(F)c(Nc4ccc5c(c4)OCCO5)n3)c2[nH]1 [compound 647]	≥ 4.70
CCOC(=O)c1cc2cc(Nc3ncc(F)c(Nc4ccc(C(C)(C)C)cc4)n3)ccc2[nH]1 [compound 617]	< 4.70
CNC(=O)c1cc2cccc(Nc3ncc(F)c(N(C)c4cc(OC)cc(OC)c4)n3)c2[nH]1 [compound 663]	≥ 4.70
CCOC(=O)c1cc2cccc(Nc3ncc(F)c(N(C)c4ccc(OC)c(OC)c4)n3)c2[nH]1 [compound 666]	≥ 4.70
O=C(NCCO)c1cc2cc(Nc3ncc(F)c(Nc4ccc5c(c4)OCCO5)n3)ccc2o1 [compound 631]	≥ 4.70
O=C(O)c1cc2cc(Nc3ncc(F)c(Nc4cccc(O)c4)n3)ccc2[nH]1 [compound 621]	< 4.70
CNC(=O)c1cc2cc(Nc3ncc(F)c(Nc4ccc(C(C)(C)C)cc4)n3)ccc2o1 [compound 628]	< 4.70
CNC(=O)c1cc2cccc(Nc3ncc(F)c(Nc4cc(OC)cc(OC)c4)n3)c2[nH]1 [compound 654]	≥ 4.70
COC(=O)c1cc2cc(Nc3ncc(F)c(Nc4ccc5c(c4)NC(=O)C(C)(C)O5)n3)ccc2o1 [compound 677]	≥ 4.70
CCOC(=O)c1cc2cccc(Nc3ncc(F)c(Nc4ccc(OC)c(OC)c4)n3)c2[nH]1 [compound 664]	≥ 4.70
COC(=O)c1cc2cc(Nc3ncc(F)c(Nc4ccc(C(C)(C)C)cc4)n3)ccc2o1 [compound 619]	< 4.70
COc1cc(Nc2nc(Nc3cccc4cc(C(=O)N(C)CCO)[nH]c34)ncc2F)cc(OC)c1 [compound 659]	≥ 4.70
CC(C)Oc1cccc(Nc2nc(Nc3ccc4oc(C(=O)N5CCOCC5)cc4c3)ncc2F)c1 [compound 625]	≥ 4.70
CCOC(=O)c1cc2cccc(Nc3ncc(F)c(Nc4cccc(O)c4)n3)c2[nH]1 [compound 648]	≥ 4.70

---

# Tested on: H1299 cells
# protocol details: in vitro antiproliferation assay, H1299 (lung)
# Assay type: cell-based
# assay setup: IC50 class against H1299 (lung) tumor cells
Form field: IC50 (one value per entry).

smiles str	IC50
CCN1CCN(c2ccc(Nc3ncc(F)c(NC4CC(C)(C)N(C)C(C)(C)C4)n3)cn2)CC1	≤ 20 µM
CCN1CCN(c2ccc(Nc3ncc(F)c(NC4CCCCC4)n3)cn2)CC1	≤ 20 µM
CCN(CC)CCNC(=O)c1ccc(Nc2ncc(F)c(NC3CCCC3)n2)cc1	≤ 20 µM
COc1ccc(Nc2ncc(F)c(Nc3ccc4c(n3)NCCO4)n2)cc1Cl	> 20 µM

---

# Test system: A549 cells
# protocol details: in vitro antiproliferation assay, A549 (lung)
# Assay type: cell-based
# assay setup: Homo sapiens; A549 (lung) cells
pIC50: −log10 of the molar value.
Form field: pIC50 (one value per entry).
endpoint label: pIC50

molecule	endpoint label	result
COc1cc(Nc2nc(Nc3cc(OC)c(Cl)cc3OC)ncc2F)cc(OC)c1 [compound 1159]	pIC50	≥ 4.70
CNc1ncc(F)c(Nc2cc(Cl)c(OC)c(Cl)c2)n1 [compound 1160]	pIC50	≥ 4.70
COc1cc(OC)c(Nc2ncc(F)c(Nc3ccc4c(c3)NC(=O)[C@H](C)O4)n2)cc1Cl [compound 1141]	pIC50	< 4.70
Cn1nc(-c2ccccc2)cc1Nc1nc(Nc2cccc(-c3ncco3)c2)ncc1F [compound 1161]	pIC50	≥ 4.70
COc1cc(C(N)=O)c(Nc2ncc(F)c(NC3CCCC3)n2)cc1OC(=O)c1ccccc1 [compound 1163]	pIC50	≥ 4.70
COc1cc(C(N)=O)c(Nc2ncc(F)c(N(C)C3CCC3)n2)cc1OC(=O)c1ccccc1 [compound 1162]	pIC50	≥ 4.70

---

Form field: IC50 (one value per entry).
# Test system: A549 cells
# protocol details: in vitro antiproliferation assay, A549 (lung)
# Assay type: cell-based
# assay setup: A549 (lung) cells, antiproliferation
endpoint label: IC50

smiles str	result
Cc1cc(C)cc(Nc2nc(Nc3cc(C)c(Cl)c(Cl)c3)ncc2F)c1	≤ 20 µM
Cc1cc(C)cc(Nc2nc(Nc3cc(Cl)c(Cl)c(Cl)c3)ncc2F)c1	≤ 20 µM
CC(=O)c1cc(Nc2ncc(F)c(Nc3cccc(O)c3)n2)cc(-c2ncco2)c1	≤ 20 µM
Cc1cc(Nc2nc(Nc3cccc(OCC(=O)N4CCNCC4)c3)ncc2F)cc(C)c1O	≤ 20 µM
CNC(=O)COc1cccc(Nc2ncc(F)c(Nc3cccc(C(C)C)c3)n2)c1	> 20 µM
Cc1cc(Nc2nc(Nc3cccc(OCC(=O)O)c3)ncc2F)cc(C)c1O	> 20 µM

---

# Test system: A549 cells
# protocol details: in vitro antiproliferation assay, A549 (lung)
# Assay type: cell-based
# assay setup: Table 5; in vitro antiproliferation, A549 (lung) cells

smiles str	IC50
COc1cc(Nc2ncc(F)c(Nc3ccc4c(c3)OCCO4)n2)cc(OC)c1	≤ 20 µM
COC(=O)c1cc(Nc2ncc(F)c(Nc3ccc4c(c3)OCCO4)n2)cc(-c2ncco2)c1	≤ 20 µM
COc1cc(Nc2ncc(F)c(Nc3ccc4c(c3)OC(F)(F)O4)n2)cc(C(F)(F)F)c1	≤ 20 µM
Cc1cc(C)cc(Nc2ncc(F)c(Nc3ccc4c(c3)OC(F)(F)O4)n2)c1	≤ 20 µM
CN(C)CCOc1cccc(Nc2ncc(F)c(Nc3ccc4c(c3)OCCO4)n2)c1	> 20 µM
Fc1cc(F)cc(Nc2ncc(F)c(Nc3ccc4c(c3)OCCO4)n2)c1	> 20 µM
Cc1cc(Nc2ncc(F)c(Nc3ccc4c(c3)OCCO4)n2)cc(C)c1Cl	≤ 20 µM
NC(=O)COc1cccc(Nc2ncc(F)c(Nc3ccc4c(c3)OCCO4)n2)c1	≤ 20 µM

---

# System: PC3
# protocol details: in vitro antiproliferation assay, PC3 (prostate)
# Assay type: cell-based
pIC50: −log10 of the molar value.
Form field: pIC50 (one value per entry).

compound	pIC50
CC(C)(C)c1ccc(Nc2nc(Nc3cccc(OCC(=O)O)c3)ncc2F)cc1 [compound 749]	< 4.70
CNC(=O)COc1ccc(Nc2ncc(F)c(Nc3ccc(C(C)(C)C)cc3)n2)cc1 [compound 747]	≥ 4.70
COc1cc(Nc2nc(Nc3cccc(OCCO)c3)ncc2F)cc(OC)c1 [compound 940]	≥ 4.70
CN(C)CCOc1cccc(Nc2ncc(F)c(Nc3ccc4c(c3)OCCO4)n2)c1 [compound 510]	< 4.70
COc1c(C)cc(Nc2nc(Nc3cccc(OCCN4CCNCC4)c3)ncc2F)cc1C [compound 987]	≥ 4.70
CNC(=O)COc1cccc(Nc2ncc(F)c(Nc3cc(OC)cc(OC)c3)n2)c1 [compound 767]	< 4.70
COC(=O)COc1cccc(Nc2ncc(F)c(Nc3ccc4c(c3)OCCCO4)n2)c1 [compound 580]	< 4.70
CNC(=O)COc1cccc(Nc2ncc(F)c(Nc3ccc(OC(F)(F)F)c(Cl)c3)n2)c1 [compound 699]	< 4.70

From: patent US8809341B2
